# measurement.target: ENL YEATS domain (association with H3K27cr) (Homo sapiens, UniProt Q03111)
# Sequence (Q03111 1-148): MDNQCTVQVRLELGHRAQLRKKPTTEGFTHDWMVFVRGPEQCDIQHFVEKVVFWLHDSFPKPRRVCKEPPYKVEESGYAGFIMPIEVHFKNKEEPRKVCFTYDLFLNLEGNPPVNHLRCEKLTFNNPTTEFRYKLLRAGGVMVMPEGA
# measurement.description: biochemical
# experimental.parameters: read-out: ENL (YEATS)-H3K27cr HTRF (IC50); Table 1
# Experimental: Protein Production. Double stranded DNA fragments encoding the protein sequence of ENL YEATS(1-148) were synthesized (IDT DNA) for assembly-based cloning into a modified expression vector backbone derived from pET21a (Novagen). […] Homogenous time-resolved FRET (HTRF) histone-binding assays. […] Assays were incubated for 2 or more hours before measurement of HTRF signal on a PHERAstar plate reader (BMG Labtech; simultaneous dual emission; excitation=337 nm, emission 1=665 nm, emission 2=620 nm). […]
quantity.kind: IC50 (µM)
Give the value in µM but do not write µM after it.

Qu. Please supply the value of reported IC50 for the item `CC(C)NC(=O)c1ccc2nc(-c3cccc(N=S(=O)(F)F)c3)cn2c1`
Ans. 3.6
